- tgt: T1, monkey GPC3-His protein (monkey)
- T1 construct: Bought recombinant protein; also called monkey GPC3 protein
- testSummary: ELISA, monkey GPC3-His coated;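 also: Plate-coated antigen at 1 µg/mL, antibody binding 2 h at 37 °C, detected with HRP-labeled secondary antibody and TMB, absorbance at 450 nm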
valueKind: OD450 at 100 nM (OD450)
The answer is to be given in OD450; state only the numeric part.

[[record]]
binder = "F4.26.1 (antibody, human IgG1, kappa, V domains shown, Human-murine chimeric antibody) VH: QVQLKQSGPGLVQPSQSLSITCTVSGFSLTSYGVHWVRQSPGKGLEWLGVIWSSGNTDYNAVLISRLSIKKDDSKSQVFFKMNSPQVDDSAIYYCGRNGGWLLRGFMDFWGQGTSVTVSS VL: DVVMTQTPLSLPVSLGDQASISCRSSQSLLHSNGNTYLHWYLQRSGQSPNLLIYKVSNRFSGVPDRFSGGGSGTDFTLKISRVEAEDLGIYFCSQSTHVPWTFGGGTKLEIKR"
valuekind = "OD450 at 100 nM"
units = "OD450"
reported = 1.5


Incoming: OD450 at 100 nM lookup needed for F1.2.14 (antibody, human IgG1, kappa, V domains shown, Human-murine chimeric antibody) VH: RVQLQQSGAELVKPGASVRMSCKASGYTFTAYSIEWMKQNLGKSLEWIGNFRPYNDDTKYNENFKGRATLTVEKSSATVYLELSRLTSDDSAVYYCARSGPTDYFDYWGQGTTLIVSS VL: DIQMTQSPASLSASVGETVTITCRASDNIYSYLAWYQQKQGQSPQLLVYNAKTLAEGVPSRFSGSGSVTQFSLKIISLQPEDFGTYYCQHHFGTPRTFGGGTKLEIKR , thanks.
Outgoing: 1.55
